system: Escherichia coli TOP10; assay: shrunken log2 fold change of peptide-encoding DNA abundance (4.5 h post-induction vs induction); higher = less antimicrobial activity (less host growth inhibition); settings: time post-induction: 4.5 h; library: site-saturation at positions 5, 18, 19, 20
MEASURED QUANTITY: shrunken log2 fold change
No unit in the answer, only the number.

Before answering, review these 8 worked examples.
| CHAIN | shrunken log2 fold change |
| --- | --- |
| RRIRGRPPRLPRPRPRPTYHPRP | 0.0704 |
| RRIRNRPPRLPRPRPRPGKDPRP | -0.0565 |
| RRIRPRPPRLPRPRPRPGIKPRP | -0.0194 |
| RRIRHRPPRLPRPRPRPNGRPRP | -9.3e-05 |
| RRIRVRPPRLPRPRPRPGWRPRP | 0.49 |
| RRIRMRPPRLPRPRPRPHQEPRP | 0.018 |
| RRIRPRPPRLPRPRPRPAIYPRP | -0.017 |
| RRIRQRPPRLPRPRPRPHHMPRP | -0.256 |

# ---- query sequence ----
Notebook entry, Escherichia coli TOP10 assay: shrunken log2 fold change of `RRIRLRPPRLPRPRPRPDQSPRP` = ?
0.0621

###

tested on: Escherichia coli TOP10; assay: shrunken log2 fold change of peptide-encoding DNA abundance (4.5 h post-induction vs induction); higher = less antimicrobial activity (less host growth inhibition); settings: time post-induction: 4.5 h; library: site-saturation at positions 5, 18, 19, 20
Parameter class (string): assigned from measured shrunken log2 fold change. Ranges: range 1: < -0.3; range 2: ≥ -0.3 and < 0.07; range 3: ≥ 0.07

Answered cases to consult:
| CHAIN | CLASS |
| --- | --- |
| RRIRGRPPRLPRPRPRPQLKPRP | range 3 |
| RRIRIRPPRLPRPRPRPSDHPRP | range 1 |
| RRIRHRPPRLPRPRPRPVVTPRP | range 2 |
| RRIRFRPPRLPRPRPRPQYCPRP | range 1 |

Note: place this sequence into its band. Item: `RRIRTRPPRLPRPRPRPPNNPRP`
range 1

The entry to classify is `RRIRCRPPRLPRPRPRPYYSPRP` ; which class holds it?
range 1

Class? Entry: `RRIRDRPPRLPRPRPRPSNSPRP`
range 1

Which category does the recorded shrunken log2 fold change put `RRIRARPPRLPRPRPRPLRRPRP` in?
range 3

Please let me know in which category the item `RRIRCRPPRLPRPRPRPRGSPRP` belongs.
range 3

Band for the recorded shrunken log2 fold change of `RRIRYRPPRLPRPRPRPDCPPRP` ?
range 2

Exam item: assign `RRIRTRPPRLPRPRPRPATGPRP` to the correct category.
range 2

Looking at `RRIRERPPRLPRPRPRPAGRPRP` , which class would you pick?
range 3

Form field 'band' for `RRIRIRPPRLPRPRPRPVYPPRP`
range 2

Bin? `RRIRGRPPRLPRPRPRPDAGPRP`
range 3

Which band does `RRIRERPPRLPRPRPRPIAIPRP` fall in?
range 2

###

system: Escherichia coli TOP10; assay: shrunken log2 fold change of peptide-encoding DNA abundance (4.5 h post-induction vs induction); higher = less antimicrobial activity (less host growth inhibition); details: time post-induction: 4.5 h; library: site-saturation at positions 5, 18, 19, 20
MEASURED QUANTITY: shrunken log2 fold change

Some entries whose results are on file:
| CHAIN | STUDY SYSTEM | shrunken log2 fold change |
| --- | --- | --- |
| RRIRNRPPRLPRPRPRPETDPRP | Escherichia coli TOP10 | -0.05 |
| RRIRYRPPRLPRPRPRPEIDPRP | Escherichia coli TOP10 | -0.0347 |
| RRIRHRPPRLPRPRPRPGKPPRP | Escherichia coli TOP10 | -0.00366 |

# query: shrunken log2 fold change | item `RRIRPRPPRLPRPRPRPWQCPRP` | system: Escherichia coli TOP10
-0.0562

Form: Entry = `RRIRDRPPRLPRPRPRPQPHPRP` | System = Escherichia coli TOP10 | shrunken log2 fold change = ____
0.228

Kindly state the measured shrunken log2 fold change obtained for `RRIRHRPPRLPRPRPRPNFDPRP` with Escherichia coli TOP10.
-0.0783

Give the reported shrunken log2 fold change for `RRIRNRPPRLPRPRPRPAHHPRP` (system: Escherichia coli TOP10).
-0.0626

API: value(readout=shrunken log2 fold change, system=Escherichia coli TOP10) for record `RRIRARPPRLPRPRPRPIYKPRP`
-0.172

###

test system: Escherichia coli TOP10; test: shrunken log2 fold change of peptide-encoding DNA abundance (4.5 h post-induction vs induction); higher = less antimicrobial activity (less host growth inhibition); details: time post-induction: 4.5 h; library: site-saturation at positions 5, 18, 19, 20
Assign true to entries whose shrunken log2 fold change meets or exceeds -0.1; assign false to the rest.

| CHAIN | CLASS |
| --- | --- |
| RRIRRRPPRLPRPRPRPPCMPRP | true |

Exam item: decide whether the reported shrunken log2 fold change for `RRIRDRPPRLPRPRPRPCYRPRP` is at least -0.1.
false

Does `RRIRFRPPRLPRPRPRPTGCPRP` have a reported shrunken log2 fold change of at least -0.1?
true

Reported shrunken log2 fold change reaches at least -0.1 for `RRIRVRPPRLPRPRPRPPCSPRP` ?
false

Is it the case that `RRIRNRPPRLPRPRPRPGYTPRP` has shrunken log2 fold change reaching or exceeding -0.1?
false

Check the entry `RRIRERPPRLPRPRPRPFWTPRP` : does shrunken log2 fold change equal or exceed -0.1?
false

Is shrunken log2 fold change at least -0.1? Consider `RRIRERPPRLPRPRPRPIGFPRP`
false

###

The following sequences are listed with their measured shrunken log2 fold change values.
tested on: Escherichia coli TOP10; test: shrunken log2 fold change of peptide-encoding DNA abundance (4.5 h post-induction vs induction); higher = less antimicrobial activity (less host growth inhibition); conditions: time post-induction: 4.5 h; library: site-saturation at positions 5, 18, 19, 20

Can you share its shrunken log2 fold change? I mean this sequence: `RRIRMRPPRLPRPRPRPRDWPRP`
1.31

Name the recorded shrunken log2 fold change for `RRIRKRPPRLPRPRPRPWYYPRP` .
-0.198

Could you share which shrunken log2 fold change value was measured for `RRIRHRPPRLPRPRPRPQCWPRP` ?
-0.112

What value of shrunken log2 fold change has been reported for the following sequence? `RRIRNRPPRLPRPRPRPFCVPRP`
-0.0352

# query: shrunken log2 fold change of entry `RRIRIRPPRLPRPRPRPTQEPRP`
0.0113

What does the data say about its shrunken log2 fold change? Entry: `RRIRDRPPRLPRPRPRPINFPRP`
-0.0167

Which shrunken log2 fold change value belongs to `RRIRDRPPRLPRPRPRPSICPRP` ?
-0.0317

Given the entry `RRIRWRPPRLPRPRPRPLAFPRP` , report its measured shrunken log2 fold change.
0.153

Value lookup for shrunken log2 fold change; key = `RRIRARPPRLPRPRPRPLENPRP`
0.595

shrunken log2 fold change for `RRIRKRPPRLPRPRPRPICTPRP` ?
-0.0207

I am curious: what shrunken log2 fold change value has been reported for `RRIRSRPPRLPRPRPRPNRKPRP` ?
-0.596

Data request, read-out shrunken log2 fold change, for `RRIRPRPPRLPRPRPRPVANPRP`
0.495

Quick check: shrunken log2 fold change of `RRIRQRPPRLPRPRPRPQNKPRP` ?
-0.22

Quick one: shrunken log2 fold change for `RRIRYRPPRLPRPRPRPMYTPRP` ?
-0.597

Record request: shrunken log2 fold change value, item `RRIRWRPPRLPRPRPRPQNRPRP`
0.0839

What does the data say about its shrunken log2 fold change? Entry: `RRIRDRPPRLPRPRPRPNWQPRP`
0.00408

###

The sequences listed here are annotated with their shrunken log2 fold change.
system: Escherichia coli TOP10; test: shrunken log2 fold change of peptide-encoding DNA abundance (4.5 h post-induction vs induction); higher = less antimicrobial activity (less host growth inhibition); settings: time post-induction: 4.5 h; library: site-saturation at positions 5, 18, 19, 20
The response must contain the number and no unit.

Worked examples follow.
| CHAIN | shrunken log2 fold change |
| --- | --- |
| RRIRSRPPRLPRPRPRPEGKPRP | 0.0822 |
| RRIRTRPPRLPRPRPRPHLEPRP | -0.0891 |
| RRIRWRPPRLPRPRPRPFRWPRP | 0.0815 |

// next entry
Need shrunken log2 fold change of `RRIRCRPPRLPRPRPRPRHHPRP` , thanks.
-0.088

###

system: Escherichia coli TOP10; test: shrunken log2 fold change of peptide-encoding DNA abundance (4.5 h post-induction vs induction); higher = less antimicrobial activity (less host growth inhibition); details: time post-induction: 4.5 h; library: site-saturation at positions 5, 18, 19, 20;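 note: peptides expressed intracellularly from a pBAD plasmid library in pooled LB shake-flask culture, induced with 0.3% L-arabinose, DNA abundance read by NGS, three biological replicates, DESeq2 with apeglm shrinkage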
This section presents sequences with their documented shrunken log2 fold change values.
# answer = number (no unit)

Examples with answers:
| CHAIN | shrunken log2 fold change |
| --- | --- |
| RRIRIRPPRLPRPRPRPGFIPRP | -0.391 |
| RRIRTRPPRLPRPRPRPTDTPRP | -0.0527 |
| RRIRRRPPRLPRPRPRPSAVPRP | 0.368 |
| RRIRCRPPRLPRPRPRPKDDPRP | 0.146 |
| RRIRPRPPRLPRPRPRPCCQPRP | -0.516 |

Fill in: shrunken log2 fold change of `RRIRRRPPRLPRPRPRPQRAPRP` is ___
0.226

Quick one: shrunken log2 fold change for `RRIRQRPPRLPRPRPRPRIWPRP` ?
0.123

What value of measured shrunken log2 fold change is listed for `RRIRFRPPRLPRPRPRPCTEPRP` ?
-0.431

GET /values?readout=shrunken log2 fold change&item= `RRIRVRPPRLPRPRPRPAIVPRP`
-0.149
